// provenance: ChEMBL document CHEMBL1125618

target: Potassium-transporting ATPase (Rattus norvegicus) (UniProt P09626+P18598); experiment: Inhibitory activity was evaluated by measuring the inhibition of isolated rat H+/K+ ATPase at a concentration of 10 mg/kg; format: organism-based; set-up: dose 10 mg/kg
reported property: inhibition

In [3]: df
Out[3]:
                                   molecule  result
0  CC(OC(=O)C(C)(C)C)n1c([S+]([O-])Cc2ccccn2)nc2ccccc21 (stereo in doubt; 30b)     40%
1  CCSc1ccnc(C[S+]([O-])c2nc3ccccc3n2COC(=O)c2ccccc2)c1C (stereo not given)     30%
2  CC(OC(=O)c1ccccc1)n1c([S+]([O-])Cc2ccccn2)nc2ccccc21 (stereo in doubt; 29a)     27%
3  CC(OC(=O)c1ccccc1)n1c([S+]([O-])Cc2ccccn2)nc2ccccc21 (stereo in doubt; 29b)     35%
4  CC(OC(=O)C(C)(C)C)n1c([S+]([O-])Cc2ccccn2)nc2ccccc21 (stereo in doubt; 30a)     32%
